Tested on: Blumeria graminis f sp. tritici
Assay: Test D: wheat powdery mildew, preventive spray on wheat seedlings, visual disease rating
Format: in vivo
Settings: 50 ppm (*), 100 = 100% disease control, 0 = no control
Marks after values point to notes of the source that are not given here.
MEASURE NAME: Test D disease control rating

Example entries and their recorded answers appear below.
Tell me the measured Test D disease control rating of CCC(C)c1c(Nc2c(F)cc(C#N)cc2F)c(C)nn1C (stereo not drawn) , please. 69* %

What would you report for CCC(C)c1c(C(O)c2c(F)cccc2F)c(C)nn1C (stereo not drawn) ? 86* %

What do we get for C=C(C)Cc1c(C(O)c2ccc(F)cc2Cl)c(C)nn1C (stereo not drawn) ? 76* %

Okay, and Cc1nn(C)c(C2CCCC2)c1C(O)c1ccc(F)cc1Cl (stereo not drawn) ? 89* %

Let us now turn to Cc1nn(C)c(C2CCCC2)c1C(O)c1ccc(F)cc1F (stereo not drawn) 90* %

Others:
// lookup Test D disease control rating for Cc1nn(C)c(C(C)C)c1C(O)c1ccc(F)cc1F (stereo not drawn) 99* %

---

// Test C disease control rating lookup, one value per entry
System: Botrytis cinerea
Experiment: Test C: tomato Botrytis, preventive spray on tomato seedlings, visual disease rating
Type: in vivo
Conditions: 50 ppm (*), 100 = 100% disease control, 0 = no control
Marks after values point to notes of the source that are not given here.

Solved entries (count: 3):
Item: CC=C(C)c1c(C(O)c2ccc(F)cc2Cl)c(Br)nn1C (stereo not shown) Test system: Botrytis cinerea Read-out: Test C disease control rating Value: ? 58* %

And what about the molecule C=C(C)Cc1c(C(O)c2ccc(F)cc2Cl)c(C)nn1C (stereo not shown) ? 0* %

Also CCC(C)c1c(C(O)c2c(F)cccc2F)c(C)nn1C (stereo not shown) ? 17* %

Next:
Given the entry Cc1nn(C)c(C2CCCC2)c1C(O)c1ccc(F)cc1Cl (stereo not shown) , what Test C disease control rating was observed with Botrytis cinerea? 0* %

Param item: Cc1nn(C)c(C2CCCC2)c1C(O)c1ccc(F)cc1F (stereo not shown) 26* %

Another molecule: Cc1nn(C)c(C(C)C)c1C(O)c1ccc(F)cc1F (stereo not shown) 0* %

Please answer likewise for Cn1nc(Br)c(C(O)c2ccc(F)cc2Cl)c1C1=CCCCC1 (stereo not shown) 0* %

---

Quick list: pest or weed control at 250 ppm per entry.
Tested on: Botrytis cinerea
Assay: Test C: tomato Botrytis, preventive spray on tomato seedlings, visual disease rating
Format: in vivo
Details: Botrytis cinerea, 250 ppm, 100 = 100% disease control, 0 = no control

Below are worked cases with known answers.
Request body: readout pest or weed control at 250 ppm, system Botrytis cinerea, query Cc1nn(C)c(C2CCCCC2)c1C(O)c1ccc(F)cc1F (centres unmarked) [Compound 11] . Return the value. 99%

Also need Cc1nn(C)c(C2CCCCC2)c1Oc1ccc(F)cc1Cl [Compound 12] , thanks. 9%

Next up: Cc1nn(C)c(C2CCCCC2)c1C(O)c1ccc(F)cc1Cl (centres unmarked) [Compound 8] 86%

---
# returns recorded pest or weed control at 250 ppm (system: Botrytis cinerea) for CCC(C)c1c(C(O)c2ccc(F)cc2F)c(C)nn1C (centres unmarked) [Compound 10] 99%

Subsequent entry: Cc1nn(C)c(C2=CCCCC2)c1Oc1ccc(F)cc1Cl [Compound 13] 0%

Every entry's value here was drawn from patent US20170037014A1.
